Reported CC50 at 24 h values follow for various molecules
- MEASUREMENT_DESCRIPTION: in vitro
- EXPERIMENTAL_CONDITIONS: rat, gh3-tre-luc cells, AC50 (uM) modified / 1000
RECORDED_METRIC: CC50 at 24 h

> print(dat)
                                   molecule  recorded.metric  observed.measurement
1  C=C(C)C1CC=C(C)[C@@H](O)C1 (some centres unmarked)     CC50 at 24 h               > 90 µM
2  COc1ccc([C@@H]2Sc3ccccc3N(CCN(C)C)C(=O)[C@@H]2OC(C)=O)cc1 [(+)-Diltiazem]     CC50 at 24 h               22.9 µM
3        O=S(=O)(Oc1ccc(Cl)cc1)c1ccc(Cl)cc1     CC50 at 24 h               > 90 µM
4                       CCN(CC)C(=O)N(CC)CC     CC50 at 24 h               > 90 µM
5  CCCCCCCC(=O)N(C)C [N,N-Dimethyloctanamide]     CC50 at 24 h               > 90 µM
